- System: pcDNA
- protocol: Efflux pump drug resistance, antiproliferation assay, parent line
- Assay type: cell-based
- condition-set: 72 h, air, 3 days; read-out: Air 3d pcDNA prol. IC50
- Description: The compounds were screened for cytotoxicity using human non small cell lung cancer cell line H460. […] Cellular drug resistance was determined using the antiproliferation assay described above.
Documented IC50 across a set of molecules
Could you give me the number in nM? Just the number is fine.

1) CC[C@@]1(O)C(=O)OCc2c1c([N+](=O)[O-])c1n(c2=O)Cc2c-1nc1ccccc1c2C | 574
2) CCc1c2c(nc3ccccc13)-c1c(N)c3c(c(=O)n1C2)COC(=O)[C@]3(O)CC | 4.3
3) CC[C@@]1(O)C(=O)OCc2c1c(N)c1n(c2=O)Cc2c-1nc1ccccc1c2/C=N/OC(C)(C)C | 3.2
4) CC[C@@]1(O)C(=O)OCc2c1c([N+](=O)[O-])c1n(c2=O)Cc2c-1nc1ccccc1c2/C=N/OC(C)(C)C | 461
5) CC[C@@]1(O)C(=O)OCc2c1c(N)c1n(c2=O)Cc2cc3c(N)cccc3nc2-1 | 5.6
6) CC[C@@]1(O)C(=O)OCc2c1c(N)c1n(c2=O)Cc2c-1nc1ccccc1c2C | 2.3
7) CCc1c2c(nc3ccccc13)-c1c([N+](=O)[O-])c3c(c(=O)n1C2)COC(=O)[C@]3(O)CC | 1800
8) CC[C@@]1(O)C(=O)OCc2c1c([N+](=O)[O-])c1n(c2=O)Cc2c-1nc1ccccc1c2CO | 3900

Request: So what does the record say about IC50 for "CC[C@@]1(O)C(=O)OCc2c1c(N)c1n(c2=O)Cc2cc3ccccc3nc2-1" ?
Response: 7.4

Request: Looking for the measured IC50 of "CCc1c2c(nc3ccccc13)-c1c(NC=O)c3c(c(=O)n1C2)COC(=O)[C@]3(O)CC" , can you help?
Response: 9.5

---

- protocol: In vivo pharmacokinetics, oral gavage
- condition-set: CD, mouse, in vivo, po, 50 mg/kg
Overview of reported Cmax across a group of compounds:
Number in ng/mL, nothing else.

Check out these entries, answers already filled in.
1) CC[C@@]1(O)C(=O)OCc2c1c([N+](=O)[O-])c1n(c2=O)Cc2c-1nc1ccccc1c2C [TH1446] | 5100
2) CCc1c2c(nc3ccccc13)-c1c([N+](=O)[O-])c3c(c(=O)n1C2)COC(=O)[C@]3(O)CC [TH1332] | 380
3) CC[C@@]1(O)C(=O)OCc2c1c([N+](=O)[O-])c1n(c2=O)Cc2c-1nc1ccccc1c2/C=N/OC(C)(C)C [TH1431] | 348

Next compound, Cmax to be filled in.
Request: Which measured Cmax value corresponds to CC[C@@]1(O)C(=O)OCc2c1c(N)c1n(c2=O)Cc2cc3ccccc3nc2-1 [TH1320] ?
Response: 547

---

// IC90 lookup, one value per entry
- protocol: Bone marrow progenitor cell clonogenic assay (CFU-GM), mouse
- condition-set: mouse
The figure you give is taken to be in µM; do not add the unit.

Sample answers from the record:
1. CC[C@@]1(O)C(=O)OCc2c1c(N)c1n(c2=O)Cc2c-1nc1ccccc1c2C | 2.2
2. CC[C@@]1(O)C(=O)OCc2c1c(N)c1n(c2=O)Cc2cc3ccccc3nc2-1 | 4.8

Request: Look up IC90: "CC[C@@]1(O)C(=O)OCc2c1c(NC=O)c1n(c2=O)Cc2cc3ccccc3nc2-1"
Response: 6.2

---

- System: BCRP, which over expressed the breast cancer resistance protein
- protocol: Efflux pump drug resistance, antiproliferation assay, BCRP over expressing line
- condition-set: ratio of IC50s, BCRP over expressing versus parent line, 3 days
Rule: 3d BCRP/pcDNA of 1 or more gives t; anything lower gives f.

For orientation, consider the following solved cases.
1) CC[C@@]1(O)C(=O)OCc2c1c([N+](=O)[O-])c1n(c2=O)Cc2c-1nc1ccccc1c2C | t
2) CCc1c2c(nc3ccccc13)-c1c([N+](=O)[O-])c3c(c(=O)n1C2)COC(=O)[C@]3(O)CC | t
3) CC[C@@]1(O)C(=O)OCc2c1c(N)c1n(c2=O)Cc2c-1nc1ccccc1c2/C=N/OC(C)(C)C | t
4) CC[C@@]1(O)C(=O)OCc2c1c([N+](=O)[O-])c1n(c2=O)Cc2c-1nc1ccccc1c2CO | t
5) CC[C@@]1(O)C(=O)OCc2c1c(N)c1n(c2=O)Cc2cc3ccccc3nc2-1 | t

Request: Does the reported 3d BCRP/pcDNA for "CCc1c2c(nc3ccccc13)-c1c(NC=O)c3c(c(=O)n1C2)COC(=O)[C@]3(O)CC" fall at or above the 1 mark?
Response: f

Request: Is the recorded value of 3d BCRP/pcDNA equal to or greater than 1 for this compound? "CC[C@@]1(O)C(=O)OCc2c1c(N)c1n(c2=O)Cc2cc3c(N)cccc3nc2-1"
Response: t

Request: Decide: is the reported value of 3d BCRP/pcDNA for "CCc1c2c(nc3ccccc13)-c1c(N)c3c(c(=O)n1C2)COC(=O)[C@]3(O)CC" equal to or greater than 1?
Response: t

Request: Hi, just wondering whether "CC[C@@]1(O)C(=O)OCc2c1c(N)c1n(c2=O)Cc2c-1nc1ccccc1c2C" shows 3d BCRP/pcDNA of 1 or higher.
Response: f

---

- Tested on: BCRP, which over expressed the breast cancer resistance protein
- protocol: Efflux pump drug resistance, antiproliferation assay, BCRP over expressing line
- condition-set: 72 h, read-out: Air 3d BCRP prol. IC50 nM, air, 3 days
measured-parameter: IC50 (nM)
// return numeric value only (unit: nM, not printed)

1) CCc1c2c(nc3ccccc13)-c1c(NC=O)c3c(c(=O)n1C2)COC(=O)[C@]3(O)CC | 7.3
2) CCc1c2c(nc3ccccc13)-c1c(N)c3c(c(=O)n1C2)COC(=O)[C@]3(O)CC | 4.9
3) CC[C@@]1(O)C(=O)OCc2c1c(N)c1n(c2=O)Cc2c-1nc1ccccc1c2C | 2.1

Request: Would you kindly share the measured IC50 for "CC[C@@]1(O)C(=O)OCc2c1c(N)c1n(c2=O)Cc2c-1nc1ccccc1c2/C=N/OC(C)(C)C" ?
Response: 3.4

Request: Query: IC50; subject: "CC[C@@]1(O)C(=O)OCc2c1c(N)c1n(c2=O)Cc2cc3ccccc3nc2-1"
Response: 14

Request: For the molecule "CCc1c2c(nc3ccccc13)-c1c([N+](=O)[O-])c3c(c(=O)n1C2)COC(=O)[C@]3(O)CC" , what IC50 is on record?
Response: 2300

Request: So what's the measured IC50 for this one? "CC[C@@]1(O)C(=O)OCc2c1c(N)c1n(c2=O)Cc2cc3c(N)cccc3nc2-1"
Response: 26.6

Request: Entry "CC[C@@]1(O)C(=O)OCc2c1c([N+](=O)[O-])c1n(c2=O)Cc2c-1nc1ccccc1c2CO" has what IC50?
Response: 7800

Request: Entry under review: "CC[C@@]1(O)C(=O)OCc2c1c([N+](=O)[O-])c1n(c2=O)Cc2c-1nc1ccccc1c2C" . Reported IC50?
Response: 2740

---

- System: H69 small cell lung cancer line
- protocol: Efflux pump drug resistance, antiproliferation assay, parent line
- Type: cell-based
- condition-set: 120 h; air, 5 days; read-out: Air 5d H69 prol. IC50
measured-parameter: IC50 (nM)
Give the number; nM is assumed, so skip it.

Reference set (2 entries):
1. CCc1c2c(nc3ccccc13)-c1c([N+](=O)[O-])c3c(c(=O)n1C2)COC(=O)[C@]3(O)CC [TH1332] | 4220
2. CC[C@@]1(O)C(=O)OCc2c1c([N+](=O)[O-])c1n(c2=O)Cc2c-1nc1ccccc1c2/C=N/OC(C)(C)C [TH1431] | 354

Request: What value of measured IC50 is listed for CC[C@@]1(O)C(=O)OCc2c1c([N+](=O)[O-])c1n(c2=O)Cc2c-1nc1ccccc1c2C [TH1446] ?
Response: 2740

Request: Using the record for CC[C@@]1(O)C(=O)OCc2c1c([N+](=O)[O-])c1n(c2=O)Cc2cc3ccccc3nc2-1 [TH1317] , report its IC50.
Response: 933

---

- System: human non small cell lung cancer cell line H460
- protocol: Antiproliferation (cytotoxicity) assay, 72 hrs under air, Alamar Blue
- Type: cell-based
- condition-set: H460, inhibition of proliferation, 72 hrs under air; read-out: IC50
measured-parameter: IC50

Request: For CC[C@@]1(O)C(=O)OCc2c1cc1n(c2=O)Cc2cc3ccccc3nc2-1 [Camptothecin, reference compound] , what is its reported IC50?
Response: 14 nM
